measurement.target: GSK3β (Homo sapiens, UniProt P49841)
Sequence (P49841 whole entry): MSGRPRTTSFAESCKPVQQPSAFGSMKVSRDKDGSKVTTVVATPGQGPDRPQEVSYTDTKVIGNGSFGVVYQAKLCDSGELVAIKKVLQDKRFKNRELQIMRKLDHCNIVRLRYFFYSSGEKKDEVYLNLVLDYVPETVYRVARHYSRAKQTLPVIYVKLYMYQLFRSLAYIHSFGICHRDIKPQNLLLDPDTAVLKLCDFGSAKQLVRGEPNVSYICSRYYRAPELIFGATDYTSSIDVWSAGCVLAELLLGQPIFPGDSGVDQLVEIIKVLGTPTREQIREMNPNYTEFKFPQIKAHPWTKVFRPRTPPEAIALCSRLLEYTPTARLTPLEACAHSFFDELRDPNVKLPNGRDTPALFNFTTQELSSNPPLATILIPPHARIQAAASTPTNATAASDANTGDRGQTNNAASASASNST
experiment.description: biochemical
Documented log10 of IC50 across a set of molecules
measurement.name: log10 of IC50 (log10 of the value in nM)

{"molecule": "CC1(C)CC(=O)C2=C(C1)Nc1n[nH]c(C3CC(F)(F)C3)c1[C@@]2(C)c1cccc(C(F)(F)F)c1 (stereo in doubt)", "log10 of IC50": 3.19}
{"molecule": "CCC1(c2cccc(Cl)c2)C2=C(CC(C)(C)CC2=O)Nc2n[nH]cc21 (racemic)", "log10 of IC50": 2.49}
{"molecule": "CC1(C)CC(=O)C2=C(C1)Nc1n[nH]c(C3CCCC3)c1[C@@]2(C)c1ccccc1 (stereo in doubt)", "log10 of IC50": 3.72}
{"molecule": "CCc1ccccc1[C@@H]1C2=C(CC(C)(C)CC2=O)Nc2n[nH]c(C(C)C)c21", "log10 of IC50": 1.62}
{"molecule": "CC1(C)CC(=O)C2=C(C1)Nc1n[nH]cc1[C@]2(C)c1cccc(F)c1 (stereo in doubt)", "log10 of IC50": 3.09}
{"molecule": "CC1(C)CC(=O)C2=C(C1)Nc1n[nH]c(C3CC(F)(F)C3)c1[C@@]21CCc2c(F)cccc21", "log10 of IC50": 2.09}
{"molecule": "CC1(C)CC(=O)C2=C(C1)Nc1n[nH]c(C3CC(F)(F)C3)c1[C@]21CCc2cc(F)ccc21", "log10 of IC50": 1.58}
{"molecule": "CN1C(=O)C2(C3=C(CC(C)(C)CC3=O)Nc3n[nH]c(CC(C)(C)C)c32)c2ccccc21 (centres unmarked)", "log10 of IC50": 2.97}
{"molecule": "CC1(C)CC(=O)C2=C(C1)Nc1n[nH]c(C3CC(F)(F)C3)c1[C@@]21CCc2cc(F)ccc21", "log10 of IC50": 1.91}
{"molecule": "CCC(C)(C)Cc1[nH]nc2c1[C@@]1(CCc3cc(F)ccc31)C1=C(CC(C)(C)CC1=O)N2 (stereo in doubt)", "log10 of IC50": 2.10}
{"molecule": "CC(C)c1[nH]nc2c1[C@@H](c1ccccc1Cl)C1=C(CC(C)(C)CC1=O)N2", "log10 of IC50": 1.23}
{"molecule": "CC(C)c1[nH]nc2c1[C@@](C)(c1ccccc1)C1=C(CC(C)(C)CC1=O)N2 (stereo in doubt)", "log10 of IC50": 2.36}
{"molecule": "CC(C)c1[nH]nc2c1[C@]1(CCc3ccccc31)C1=C(CC(C)(C)CC1=O)N2 (stereo in doubt)", "log10 of IC50": 1.43}
{"molecule": "Cc1ccccc1[C@@H]1C2=C(CC(C)(C)CC2=O)Nc2n[nH]c(C(C)C)c21", "log10 of IC50": 2.49}
{"molecule": "CC1(C)CC(=O)C2=C(C1)Nc1n[nH]cc1[C@@]2(C)c1cccc(F)c1 (stereo in doubt)", "log10 of IC50": 4.46}
{"molecule": "CC1(C)CC(=O)C2=C(C1)Nc1n[nH]cc1C2(C)c1cccc(C(F)(F)F)c1 (racemic)", "log10 of IC50": 0.60}
{"molecule": "CC(C)[C@]1(c2ccccc2)C2=C(CC(C)(C)CC2=O)Nc2n[nH]cc21 (stereo in doubt)", "log10 of IC50": 3.86}
{"molecule": "CC[C@@]1(c2ccccc2)C2=C(CC(C)(C)CC2=O)Nc2n[nH]c(C3CC3)c21 (stereo in doubt)", "log10 of IC50": 1.49}
{"molecule": "CC1(C)CC(=O)C2=C(C1)Nc1n[nH]c(C3CC(F)(F)C3)c1[C@]21CCc2ccccc21", "log10 of IC50": 1.72}
{"molecule": "CC1(C)CC(=O)C2=C(C1)Nc1n[nH]c(C3CC(F)(F)C3)c1C21CCCc2ccccc21 (centres unmarked)", "log10 of IC50": 1.58}
{"molecule": "CC1(C)CC(=O)C2=C(C1)Nc1n[nH]c(C3CC(F)(F)C3)c1C21CCc2ccccc21 (racemic)", "log10 of IC50": 1.26}
{"molecule": "CC1(C)CC(=O)C2=C(C1)Nc1n[nH]c(C3CC(F)(F)C3)c1[C@]2(C)c1cccc(C(F)(F)F)c1 (stereo in doubt)", "log10 of IC50": 1.48}
{"molecule": "CC1(C)CC(=O)C2=C(C1)Nc1n[nH]c(C3CC(F)(F)C3)c1[C@]21CCOc2ccccc21", "log10 of IC50": 2.32}
{"molecule": "CC(C)[C@@]1(c2ccccc2)C2=C(CC(C)(C)CC2=O)Nc2n[nH]cc21 (stereo in doubt)", "log10 of IC50": 3.64}
{"molecule": "CCCC1(c2ccccc2)C2=C(CC(C)(C)CC2=O)Nc2n[nH]cc21 (racemic)", "log10 of IC50": 3.12}

---

measurement.target: GSK3β (Homo sapiens)
experiment.description: biochemical
Documented log10(IC50) across a set of compounds
measurement.name: log10(IC50) (log10 of the value in nM)

{"compound": "CC(C)(C)Cc1[nH]nc2c1[C@@](C)(c1ccc(F)cc1)C1=C(CC(C)(C)CC1=O)N2 (stereo in doubt)", "log10(IC50)": 2.98}
{"compound": "COc1ccccc1[C@]1(C)C2=C(CC(C)(C)CC2=O)Nc2n[nH]c(C3CC(F)(F)C3)c21 (stereo in doubt)", "log10(IC50)": 3.40}
{"compound": "CC(C)(C)Cc1[nH]nc2c1[C@]1(CCc3ccccc31)C1=C(CC(C)(C)CC1=O)N2 (stereo in doubt)", "log10(IC50)": 2.33}
{"compound": "CC1(C)CC(=O)C2=C(C1)Nc1n[nH]c(Cc3ccccc3)c1C2(C)c1ccccc1 (stereo not drawn)", "log10(IC50)": 3.25}
{"compound": "COc1cc(F)ccc1[C@H]1C2=C(CC(C)(C)CC2=O)Nc2n[nH]c(C(C)C)c21", "log10(IC50)": 1.30}
{"compound": "CC1(C)CC(=O)C2=C(C1)Nc1n[nH]c(C3CC(F)(F)C3)c1[C@]2(C)c1ccccc1 (stereo in doubt)", "log10(IC50)": 1.00}
{"compound": "CCc1ccccc1C1C2=C(CC(C)(C)CC2=O)Nc2n[nH]c(C(C)C)c21 (stereo not drawn)", "log10(IC50)": 1.61}
{"compound": "CC[C@]1(c2cccc(Cl)c2)C2=C(CC(C)(C)CC2=O)Nc2n[nH]cc21 (stereo in doubt)", "log10(IC50)": 4.39}
{"compound": "CC(C)c1[nH]nc2c1[C@@](C)(c1ccccc1Cl)C1=C(CC(C)(C)CC1=O)N2 (stereo in doubt)", "log10(IC50)": 3.54}
{"compound": "CC1(C)CC(=O)C2=C(C1)Nc1n[nH]cc1[C@]2(C)c1cccc(Cl)c1 (stereo in doubt)", "log10(IC50)": 2.24}
{"compound": "CC1(C)CC(=O)C2=C(C1)Nc1n[nH]cc1[C@]2(C)c1cccc(C(F)(F)F)c1 (stereo in doubt)", "log10(IC50)": 1.15}
{"compound": "CC(C)c1[nH]nc2c1[C@H](c1ccccc1Cl)C1=C(CC(C)(C)CC1=O)N2", "log10(IC50)": 2.45}
{"compound": "CC1(C)CC(=O)C2=C(C1)Nc1n[nH]c(Cc3ccccc3)c1[C@]2(C)c1ccccc1 (stereo in doubt)", "log10(IC50)": 2.27}
{"compound": "CC(C)(C)Cc1[nH]nc2c1[C@@](C)(c1ccccc1)C1=C(CC(C)(C)CC1=O)N2 (stereo in doubt)", "log10(IC50)": 3.02}
{"compound": "CC1(C)CC(=O)C2=C(C1)Nc1n[nH]c(C3CC(F)(F)C3)c1C21CCOc2ccccc21 (racemic)", "log10(IC50)": 1.89}
{"compound": "COc1ccccc1[C@@H]1C2=C(CC(C)(C)CC2=O)Nc2n[nH]c(C3CC(F)(F)C3)c21 (stereo in doubt)", "log10(IC50)": 1.36}
{"compound": "CCC(C)(C)Cc1[nH]nc2c1[C@](C)(c1ccccc1)C1=C(CC(C)(C)CC1=O)N2 (stereo in doubt)", "log10(IC50)": 1.72}
{"compound": "CCC1(CC)C2=C(CC(C)(C)CC2=O)Nc2n[nH]c(C)c21", "log10(IC50)": 3.46}
{"compound": "CC1(C)CC(=O)C2=C(C1)Nc1n[nH]cc1[C@]2(C)c1cccc(C#N)c1 (stereo in doubt)", "log10(IC50)": 1.48}
{"compound": "CC[C@@]1(c2cccc(C(C)(C)C)c2)C2=C(CC(C)(C)CC2=O)Nc2n[nH]cc21 (stereo in doubt)", "log10(IC50)": 1.08}

---

experiment.description: PBS stability
Assay type: physicochemical
experimental.context: PBS, pH 7.4; after 48 hours of incubation; read-out: PBS stability, % still present (acetonitrile recovery)

{"chemical.smiles": "COc1ccccc1[C@@H]1C2=C(CC(C)(C)CC2=O)Nc2n[nH]c(C(F)(F)F)c21", "recovery at 48 h": "> 95%"}

Values were extracted from patent US20160375006A1.
